# Tested on: PC-3 prostate
# procedure_summary: NCI tumour cell line growth inhibition, 48 h
attribute_measured: TGI

{"compound": "COC(=O)[C@H](Cc1c[nH]c2ccccc12)NP(=O)(OCCC#N)OCC1OC(n2cc(C)c(=O)[nH]c2=O)CC1N=[N+]=[N-] (some centres not stated)", "TGI": "> 100 µM"}
{"compound": "O=C(Nc1sccc1S(=O)(=O)c1ccc(Cl)cc1)c1ccc(F)cc1F", "TGI": "> 100 µM"}
{"compound": "CC1CC[C@@]2(OC1)O[C@H]1[C@H](O)[C@H]3[C@@H]4CC[C@H]5C[C@@H](OC6OC(CO)C(OC7OC(CO)C(O)C(OC8OCC(O)C(O)C8O)C7OC7OC(CO)C(O)C(O)C7OC7OC(CO)C(O)C(O)C7O)C(O)C6O)[C@H](O)C[C@]5(C)[C@H]4CC[C@]3(C)[C@H]1[C@@H]2C (some centres not stated)", "TGI": "7.84 µM"}
{"compound": "COc1cc2ccc(C(=O)NCCCNC(=O)c3ccc4cc(OC)c(OC)cc4c3)cc2cc1OC", "TGI": "> 100 µM"}

Prompt: Item Cc1ccc(S(=O)(=O)NC(CCC(=O)NNc2ccccc2)C(=O)NNc2ccccc2)cc1 (configuration not stated) has what recorded TGI?
Completion: > 100 µM

Prompt: Do the same for COc1ccc(-c2c(C)c(C(=O)O)nc(-c3ccc4c(O)c(OC)c5c(c4n3)=NC(C)(C)N=5)c2N)c(O)c1OC please
Completion: > 100 µM

Prompt: Another: Cc1ccc(S(=O)(=O)N2C[C@@H]3CC[C@]4(CO[Si](C)(C)C(C)(C)C)N[C@@H](c5ccccc5)[C@H]2[C@H]34)cc1
Completion: > 100 µM

Prompt: Please do the same for Cc1ccc(S(=O)(=O)NC(=O)NC(Cc2ccc(O)cc2)C(=O)O)cc1 (configuration not stated) as well.
Completion: > 100 µM

Prompt: What do we get for Nc1ccn(C2CC(F)C(CO)O2)c(=O)n1 (configuration not stated) ?
Completion: > 100 µM

Prompt: And the next one, Cc1cn(C2CCC(CO)(CF)O2)c(=O)[nH]c1=O (configuration not stated) ?
Completion: > 100 µM

Prompt: Check CC1=NN(c2cccc(Cl)c2)C2(C1=Cc1ccc(O)cc1)C(Cl)C(=O)N2c1nc2ccccc2s1 (configuration not stated) too.
Completion: 51.9 µM

Prompt: Do the same for N#Cc1nc2cc(Cl)ccc2nc1N1CCN(c2ccc([N+](=O)[O-])cc2)CC1 please
Completion: > 100 µM

Prompt: Then this compound: COc1ccccc1-n1c(=O)n(C)c(=O)n1C(C)(C)C
Completion: > 100 µM

Prompt: Moving on to the next compound: Fc1ccc(-c2ncn(C3CCNCC3)c2-c2ccnc(Oc3ccc4c(c3)OCO4)n2)cc1
Completion: > 25 µM

Prompt: Item: FC(F)(F)c1cc(N(C2c3ccccc3C=Cc3ccccc32)P(Cl)Cl)cc(C(F)(F)F)c1
Completion: 78.1 µM

Prompt: Now give it for COc1c(C(C)=O)c(OCCCCOc2c(C(C)=O)c(OC)c3ccoc3c2OC)c(OC)c2occc12 too.
Completion: > 20.6 µM

Prompt: Input C/C=C(\C)C(=O)OC1CC(OC(C)=O)C2(C(=O)OC)COC3C2C1(C)C1C2(C(=O)OC)OCC1(C3O)C1(O)C3CC(C4(O)C=COC4O3)C1(C)O2 (configuration not stated)
Completion: > 100 µM

###

# System: KM20L2 colon
# procedure_summary: NCI tumour cell line growth inhibition, 48 h
attribute_measured: TGI

{"molecule": "CCC[CH2][Sn]([CH2]CCC)([O]C(=O)c1cc(OC)c(OC)cc1OC)[O][Sn]([CH2]CCC)([CH2]CCC)[O]C(=O)c1cc(OC)c(OC)cc1OC", "TGI": "2.56 µM"}

Prompt: For the molecule shown here, C#CC1(O)CCC2C3CCc4cc(Oc5nc(F)nc(-c6c7ccccc7c7n6CCS7)n5)ccc4C3CC[C@@]21C (some centres undefined) , give the reported TGI.
Completion: > 100 µM

Prompt: Now the same for C[N+]1=c2c3cccc4cccc(c(=O)n2CC1)c43
Completion: 43.3 µM

Prompt: Thanks! And Cc1cc(N(CCC#N)S(=O)(=O)c2ccccc2)ccc1/C=C1\N=C(c2ccc(Cl)cc2)OC1=O ?
Completion: > 100 µM

###

# System: K-562 leukemia
# procedure_summary: NCI tumour cell line growth inhibition, 48 h
attribute_measured: TGI

# annotated cases, reported TGI shown
{"sample_smiles": "N#Cc1c(-c2ccc(Cl)cc2)cc(-c2ccc(Nc3ccnc4cc(Cl)ccc34)cc2)[nH]c1=O", "TGI": "> 100 µM"}
{"sample_smiles": "[2H]C([2H])([2H])NC(=O)c1nnc(NC(=O)C2CC2)cc1Nc1cccc(-c2ncn(C)n2)c1OC", "TGI": "> 100 µM"}
{"sample_smiles": "CCO/C=C1\\N=C(c2ccc(Cl)c(Cl)c2)OC1=O", "TGI": "> 100 µM"}
{"sample_smiles": "N#Cc1nc(-c2ccc(F)cc2)oc1S(=O)(=O)N1CCCCC1", "TGI": "> 100 µM"}

Shift focus to the following entry.
Prompt: Please give the measured TGI for this molecule: COc1ccc(-c2c(C)c(C(=O)O)nc(-c3ccc4c(O)c(OC)c5c(c4n3)=NC(C)(C)N=5)c2N)c(O)c1OC
Completion: 47.9 µM

###

TGI: recorded values
# Tested on: MCF7 breast
# procedure_summary: NCI tumour cell line growth inhibition, 48 h
Numbers only here, please. The scale is µM.

{"molecule": "Nc1cc2c(c3ccccc13)C(CCl)CN2C(=O)c1cc2cc(NC(=O)Nc3ccc4[nH]c(C(=O)N5CC(CCl)c6c5cc(N)c5ccccc65)cc4c3)ccc2[nH]1 (centres undefined)", "target": "MCF7 breast", "TGI / µM": 1.4}

# next molecule below
Prompt: Form field: TGI recorded for COc1ccc2c(c1)[n+](=O)c(C(=O)c1cccs1)c(C(F)(F)F)n2[O-] with MCF7 breast (enter value)
Completion: 23.7

###

# System: HCC-2998 colon
# procedure_summary: NCI tumour cell line growth inhibition, 48 h
attribute_measured: GI50

Look over these answered cases.
{"compound": "CN(C)c1ccc(Nc2c3ccccc3nc3ccccc23)cc1", "measured_value": "1410 nM"}
{"compound": "CN(C)C(=O)Nc1nc2cc(Cl)c(Cl)cc2[nH]1", "measured_value": "2500 nM"}
{"compound": "O=C(/C=C(\\O)C(=O)O)/C=C(\\O)c1ccccc1", "measured_value": "> 100000 nM"}
{"compound": "COc1ccc2c(c1)/C(=C\\c1ccncc1)C(=O)N2", "measured_value": "19000 nM"}
{"compound": "c1ccc(-c2nn3c(c2-c2ccnc4cc(OCCN5CCOCC5)ccc24)CCC3)nc1", "measured_value": "> 100000 nM"}
{"compound": "COc1ccccc1/C=C1\\COc2ccc(-c3ccccc3)cc2C1=O", "measured_value": "2630 nM"}
{"compound": "OCCCCC#Cc1ccccc1C#Cc1ccc(O)cc1", "measured_value": "15400 nM"}
{"compound": "Cc1ccc(/C=C/c2c(C(=O)/C=C/c3ccccc3)c(C)nc3ccccc23)cc1", "measured_value": "1710 nM"}
{"compound": "CNC(=O)NCC1OC(n2cnc3c(NC(=O)Nc4ccccc4)ncnc32)C(O[Si](C)(C)C(C)(C)C)C1O[Si](C)(C)C(C)(C)C (configuration not stated)", "measured_value": "2020 nM"}
{"compound": "CCCn1c2c(c3c(O)cccc31)C(=O)c1ccccc1-2", "measured_value": "9720 nM"}

Prompt: Which GI50 is listed for COc1ccc(/C=C(/c2ccccc2)[N+](=O)[O-])c(OC)c1 ?
Completion: 1920 nM

Prompt: Same question for N#Cc1nc(-c2ccc(F)cc2)oc1S(=O)(=O)N1CCCCC1 please.
Completion: 1800 nM

###

# Tested on: CAKI-1 renal
# procedure_summary: NCI tumour cell line growth inhibition, 48 h; in the data active = GI50 below about 0.43 µM; inactive = the rest
Select the correct class. Options are t = active, f = inactive and nothing else.

Please review the following examples before continuing.
{"sample_smiles": "COc1cc2c3c(n(CCCN)c(=O)c2cc1OC)-c1ccc([N+](=O)[O-])cc1C3=O", "target": "CAKI-1 renal", "assigned_class": "f"}
{"sample_smiles": "Cc1ccc(/C=C(\\C#N)c2cc3ccccc3n2C)cc1", "target": "CAKI-1 renal", "assigned_class": "t"}
{"sample_smiles": "C/C(=C\\c1ccn(-c2ccccc2N)n1)[C@@H]1C[C@@H]2O[C@]2(C)CCC[C@H](C)[C@H](O)[C@@H](C)C(=O)C(C)(C)[C@@H](O)CC(=O)O1", "target": "CAKI-1 renal", "assigned_class": "t"}
{"sample_smiles": "C#C[C@]1(O)CC[C@H]2[C@@H]3CC=C4c5sc(Nc6cc(F)ccc6F)nc5CC[C@]4(C)[C@H]3CC[C@@]21C", "target": "CAKI-1 renal", "assigned_class": "f"}
{"sample_smiles": "COc1cc2c(cc1OC)-c1ncc3c(OC)ccc(OC)c3c1C2", "target": "CAKI-1 renal", "assigned_class": "f"}
{"sample_smiles": "CCCn1c2c(c3c(O)cccc31)C(=O)c1ccccc1-2", "target": "CAKI-1 renal", "assigned_class": "f"}
{"sample_smiles": "Fc1ccc(-c2ncn(C3CCNCC3)c2-c2ccnc(Oc3ccc4c(c3)OCO4)n2)cc1", "target": "CAKI-1 renal", "assigned_class": "f"}
{"sample_smiles": "CCCCCCCCCCCC1=NC(C)(C)CN1C(C)(C)CO", "target": "CAKI-1 renal", "assigned_class": "f"}
{"sample_smiles": "N#Cc1nc(-c2ccc(F)cc2)oc1S(=O)(=O)N1CCCCC1", "target": "CAKI-1 renal", "assigned_class": "f"}

Prompt: Assay result, entry CCC[CH2][Sn]([CH2]CCC)([O]C(=O)c1cc(OC)c(OC)cc1OC)[O][Sn]([CH2]CCC)([CH2]CCC)[O]C(=O)c1cc(OC)c(OC)cc1OC — outcome?
Completion: t
